Record form. Attribute: Kd. Fill in for each entry.
Biological target: T1, eTau 1b
T1 construct: member of the group m9
T1 polypeptide: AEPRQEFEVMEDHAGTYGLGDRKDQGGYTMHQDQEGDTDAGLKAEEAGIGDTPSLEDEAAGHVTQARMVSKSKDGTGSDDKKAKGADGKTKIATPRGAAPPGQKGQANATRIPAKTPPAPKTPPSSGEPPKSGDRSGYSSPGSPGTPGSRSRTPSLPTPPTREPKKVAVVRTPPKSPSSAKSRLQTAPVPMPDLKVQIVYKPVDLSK
Assay: relative binding affinity, method not named (Table 4)

binder	readout value
VH4/Vk1 (antibody, V domains shown, member of the group m7; also called humanized IPN002 variant VH4/Vk1) VH: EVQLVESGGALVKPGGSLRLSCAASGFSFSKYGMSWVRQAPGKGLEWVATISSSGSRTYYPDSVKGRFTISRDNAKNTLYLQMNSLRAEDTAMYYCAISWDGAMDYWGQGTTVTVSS VL: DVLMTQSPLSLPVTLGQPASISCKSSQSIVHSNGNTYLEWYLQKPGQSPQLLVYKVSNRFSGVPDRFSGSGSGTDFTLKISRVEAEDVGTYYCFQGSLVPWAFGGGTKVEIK	0.359 nM
humanized IPN002 variant VH2/Vk1 (antibody, V domains shown) VH: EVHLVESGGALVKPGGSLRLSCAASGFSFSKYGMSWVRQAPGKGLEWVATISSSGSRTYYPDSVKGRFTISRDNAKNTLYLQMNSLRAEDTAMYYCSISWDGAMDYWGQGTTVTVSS VL: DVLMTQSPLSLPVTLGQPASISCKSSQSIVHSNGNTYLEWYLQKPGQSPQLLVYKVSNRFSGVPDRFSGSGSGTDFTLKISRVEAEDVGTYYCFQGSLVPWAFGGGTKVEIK	0.215 nM
humanized IPN002 variant VH2/Vk3 (antibody, V domains shown) VH: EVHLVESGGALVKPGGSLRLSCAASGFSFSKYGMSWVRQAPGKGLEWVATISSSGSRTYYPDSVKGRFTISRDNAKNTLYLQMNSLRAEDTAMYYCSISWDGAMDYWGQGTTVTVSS VL: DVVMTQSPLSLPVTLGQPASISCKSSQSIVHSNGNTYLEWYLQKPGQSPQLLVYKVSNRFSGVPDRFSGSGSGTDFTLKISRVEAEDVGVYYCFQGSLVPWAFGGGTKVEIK	0.287 nM

Given the binder VH3/Vk2 (antibody, V domains shown, member of the group m7; also called humanized IPN002 variant VH3/Vk2) VH: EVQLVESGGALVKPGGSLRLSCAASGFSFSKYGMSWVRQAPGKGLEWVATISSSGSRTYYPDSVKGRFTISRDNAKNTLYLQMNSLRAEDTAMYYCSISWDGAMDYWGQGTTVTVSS VL: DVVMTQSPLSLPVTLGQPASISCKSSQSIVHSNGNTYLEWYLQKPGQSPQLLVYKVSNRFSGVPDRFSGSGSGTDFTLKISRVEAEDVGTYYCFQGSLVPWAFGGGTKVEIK , what is its reported Kd?
0.614 nM
